Assay procedure: Solubility assessment of CSP-1103 in organic solvents (qualitative)
Type: physicochemical
Assay conditions: MTBE, organic solvent or mixture, thermodynamic from solid, qualitative solubility at 0.2 M; gentle heating 45° C. 1 minute if required
Quantity name: solubility

For O=C(O)C1(c2ccc(-c3ccc(Cl)c(Cl)c3)c(F)c2)CC1 [CSP-1103] , what is its reported solubility?
< 200 mM

---

Assay procedure: Solubility assessment of CSP-1103 in organic solvents (qualitative)
Format: physicochemical
Assay conditions: acetonitrile, organic solvent or mixture, thermodynamic from solid, qualitative solubility at 0.1 M; gentle heating if required
Quantity name: solubility

For O=C(O)C1(c2ccc(-c3ccc(Cl)c(Cl)c3)c(F)c2)CC1 [CSP-1103] , what is its reported solubility?
< 100 mM

---

Assay procedure: physchem
Assay conditions: ethanol, organic solvent or mixture
Quantity name: solubility (mM)
One number for each entry, in mM.

For "O=C1NS(=O)(=O)c2ccccc21" , what is its reported solubility?
100

---

I'd appreciate it if you could supply solubility values for the items below.
Assay procedure: physchem
Assay conditions: acetonitrile, organic solvent or mixture

Some compounds with recorded solubility:
{"Record smiles": "N[C@@H](Cc1ccccc1)C(=O)O", "solubility": "< 50 mM"}
{"Record smiles": "O=C(O)C1(c2ccc(-c3ccc(Cl)c(Cl)c3)c(F)c2)CC1", "solubility": "< 50 mM"}

Moving on to another compound below.
For "O=C(O)/C=C/c1ccc(O)c(O)c1" , what is its reported solubility?
< 50 mM

---

Assay procedure: Solubility assessment of CSP-1103 in organic solvents (qualitative)
Assay type: physicochemical
Assay conditions: ethyl acetate, organic solvent or mixture, thermodynamic from solid, qualitative solubility at 0.1 M; gentle heating if required
Quantity name: solubility

For O=C(O)C1(c2ccc(-c3ccc(Cl)c(Cl)c3)c(F)c2)CC1 [CSP-1103] , what is its reported solubility?
> 100 mM

---

Assay procedure: Solubility assessment of CSP-1103 in organic solvents (qualitative)
Type: physicochemical
Assay conditions: methanol, organic solvent or mixture, thermodynamic from solid, qualitative solubility at 0.1 M; gentle heating if required
Quantity name: solubility

For "O=C(O)C1(c2ccc(-c3ccc(Cl)c(Cl)c3)c(F)c2)CC1" , what is its reported solubility?
< 100 mM

---

Assay procedure: Solubility assessment of CSP-1103 in organic solvents (qualitative)
Format: physicochemical
Assay conditions: acetone, organic solvent or mixture, thermodynamic from solid, qualitative solubility at 0.1 M; gentle heating if required
Quantity name: solubility

For O=C(O)C1(c2ccc(-c3ccc(Cl)c(Cl)c3)c(F)c2)CC1 [CSP-1103] , what is its reported solubility?
< 100 mM

---

Assay procedure: physchem
Assay conditions: MTBE, organic solvent or mixture
Quantity name: solubility

Some compounds with recorded solubility:
{"Compound": "N[C@@H](Cc1ccccc1)C(=O)O", "solubility": "< 50 mM"}
{"Compound": "O=C(O)C1(c2ccc(-c3ccc(Cl)c(Cl)c3)c(F)c2)CC1", "solubility": "100 mM"}
{"Compound": "NC(=O)c1cccnc1 [nicotinamide]", "solubility": "< 50 mM"}

Moving on to another compound below.
For "O=C(O)/C=C/c1ccc(O)c(O)c1" , what is its reported solubility?
< 50 mM

---

Assay procedure: Coformer solubility assessment in organic solvents (qualitative)
Type: physicochemical
Assay conditions: organic solvent or mixture, thermodynamic from solid; acetone; gentle heating 45° C. if required
Quantity name: solubility

Parameters: items (list). Returns: solubility for each item.
1. COc1cc(C=O)ccc1O
2. O=C1NS(=O)(=O)c2ccccc21
3. O=C(O)/C=C/c1ccc(O)c(O)c1
4. NC(=O)c1cccnc1 [nicotinamide]

1: > 200 mM; 2: > 200 mM; 3: > 100 mM; 4: > 200 mM
